Target Desc: Cytochrome P450 2C19 (Homo sapiens) (UniProt P33261)
Sequence (P33261 whole entry, looked up): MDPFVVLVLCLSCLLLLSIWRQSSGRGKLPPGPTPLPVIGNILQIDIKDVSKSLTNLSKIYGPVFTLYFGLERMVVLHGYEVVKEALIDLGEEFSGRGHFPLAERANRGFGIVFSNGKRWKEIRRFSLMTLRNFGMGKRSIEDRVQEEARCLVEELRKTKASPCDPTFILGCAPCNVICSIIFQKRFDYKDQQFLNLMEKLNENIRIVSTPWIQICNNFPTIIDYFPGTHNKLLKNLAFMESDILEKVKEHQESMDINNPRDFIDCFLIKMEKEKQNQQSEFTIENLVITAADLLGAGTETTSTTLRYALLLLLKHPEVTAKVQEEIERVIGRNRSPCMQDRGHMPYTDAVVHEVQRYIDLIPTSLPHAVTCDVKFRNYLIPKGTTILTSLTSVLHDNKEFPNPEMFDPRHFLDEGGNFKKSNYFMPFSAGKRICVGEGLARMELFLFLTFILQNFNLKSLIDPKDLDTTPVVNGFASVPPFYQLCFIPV
Experiment: blockers of cytochrome P450 2C19 activity – biochemical, luminescence, ADME assay, primary screen (AID 778)
Condition Description: CYP2C19 Supersomes, luciferin-H EGE luminescence, 30 min; at 5 µM; hits give high values
The campaign covered roughly 96,000 compounds. About 20,000 (21%) were called active. These entries were drawn from the full list.
Assign rule met whenever inhibition does not fall below 10%; assign rule not met whenever it does.

Problem: Reported inhibition reaches at least 10% for `CCc1nc2oc3ccccc3c(=O)c2c(=O)n1Cc1ccc(OC)cc1` ?
Result: rule not met

New cases:
Problem: Reported inhibition reaches at least 10% for COc1cc(C(=O)OC(C)C(=O)NCC2CCCCC2)cc(NC(=O)c2ccco2)c1OC (centres undefined) ?
Result: rule met

Problem: Moving on to the next compound: Cc1ccc(C)c(NC(=O)C2Cc3ccccc3CN2C(=O)OCc2ccccc2)c1 (centres undefined)
Result: rule met

Problem: Moving on to the next compound: `O=C1CSC(=O)N1CCOCCN1C(=O)CSC1=O`
Result: rule met

Problem: Moving on to the next compound: `CC(=O)c1c(C)n([O-])c2ccccc2[n+]1=O`
Result: rule not met

Problem: Moving on to the next compound: Cn1cccc1C1(C(F)(F)F)NCCNC1=O (centres undefined)
Result: rule met

Problem: Moving on to the next compound: `Cc1ccc(-c2cnc(NC(=O)CCC(=O)N(C)Cc3ccccc3)n2C)cc1`
Result: rule not met
